A collection of molecules and their measured IC50
Molecular target: G810R mutant RET kinase (Homo sapiens, UniProt P07949, G810R);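 note: HTRF KinEASE-TK enzymatic assay with 1 nM recombinant RET G810R, 1 h at 22 °C, dual-wavelength ratiometric readout, 100% control without compound, 0% from pre-quenched reactions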
Sequence (P07949 29-1114 G810R): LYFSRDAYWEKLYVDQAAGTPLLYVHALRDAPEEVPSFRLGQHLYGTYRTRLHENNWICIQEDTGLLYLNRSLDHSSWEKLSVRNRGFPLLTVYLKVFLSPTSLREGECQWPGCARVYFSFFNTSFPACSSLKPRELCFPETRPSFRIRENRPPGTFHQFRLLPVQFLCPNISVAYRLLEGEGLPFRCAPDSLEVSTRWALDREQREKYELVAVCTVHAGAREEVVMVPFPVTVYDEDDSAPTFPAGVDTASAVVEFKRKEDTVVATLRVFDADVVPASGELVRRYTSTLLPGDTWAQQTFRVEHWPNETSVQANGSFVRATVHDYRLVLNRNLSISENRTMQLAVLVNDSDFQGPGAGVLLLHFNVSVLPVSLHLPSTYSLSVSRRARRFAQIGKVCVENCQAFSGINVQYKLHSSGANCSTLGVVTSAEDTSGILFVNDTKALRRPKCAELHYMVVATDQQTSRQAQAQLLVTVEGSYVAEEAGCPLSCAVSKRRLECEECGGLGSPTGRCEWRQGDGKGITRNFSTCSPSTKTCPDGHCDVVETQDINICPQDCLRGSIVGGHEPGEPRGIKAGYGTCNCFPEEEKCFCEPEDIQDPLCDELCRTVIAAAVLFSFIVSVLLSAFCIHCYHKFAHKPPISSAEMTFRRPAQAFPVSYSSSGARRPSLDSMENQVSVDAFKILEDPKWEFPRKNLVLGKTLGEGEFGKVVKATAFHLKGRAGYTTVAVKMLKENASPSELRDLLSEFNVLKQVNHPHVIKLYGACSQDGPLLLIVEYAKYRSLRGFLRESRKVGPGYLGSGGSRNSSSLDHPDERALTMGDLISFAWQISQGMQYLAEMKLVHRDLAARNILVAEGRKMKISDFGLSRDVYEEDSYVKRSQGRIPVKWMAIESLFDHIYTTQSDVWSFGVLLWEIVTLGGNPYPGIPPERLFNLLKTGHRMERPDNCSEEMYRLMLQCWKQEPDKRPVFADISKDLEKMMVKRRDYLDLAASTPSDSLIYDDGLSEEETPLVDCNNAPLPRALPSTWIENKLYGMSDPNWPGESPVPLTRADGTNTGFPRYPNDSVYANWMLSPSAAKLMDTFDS
Assay: biochemical
Write the value in nM as a bare number.

CC1(n2c3c(c4c(N)ncnc42)-c2noc(C4CC4)c2[C@H](O)CC3)CC1 [Example 150] | 84
CC(C)n1c2c(c3c(N)ncnc31)-c1noc(C3CC3)c1C(=O)N(c1cnn(C)c1)C2 [Example 18] | 253
CO[C@@H]1CCc2c(c3c(N)ncnc3n2C2(C)CC2)-c2noc(C3CC3)c21 [Example 151] | 86

Quick check: IC50 on G810R mutant RET kinase (Homo sapiens, UniProt P07949, G810R), item CC(C)n1c2c(c3c(N)ncnc31)-c1noc(C3CC3)c1C(=O)N(CCc1cnn(C)c1)C2 [Example 16] ? 354

Quick check: IC50 on G810R mutant RET kinase (Homo sapiens, UniProt P07949, G810R), item Nc1ncnc2c1c1c(n2C2CCCC2)CCC(O)c2c-1noc2C1CC1 (single isomer, unassigned) [Example 124] ? 89

Quick check: IC50 on G810R mutant RET kinase (Homo sapiens, UniProt P07949, G810R), item CC(C)n1c2c(c3c(N)ncnc31)-c1noc(C3CC3)c1[C@@H](O)[C@@H](C)C2 (relative stereo) [Example 63] ? 118

Quick check: IC50 on G810R mutant RET kinase (Homo sapiens, UniProt P07949, G810R), item CC(C)n1c2c(c3c(N)ncnc31)-c1cc3ccc(C(=O)Nc4ccn(CC(=O)N(C)C)n4)cc3n1CCC2 [Example 99] ? 2210
